Molecular target: Human ATX protein (Homo sapiens, UniProt Q13822)
Construct: made in house
Test: ATX biochemical FRET assay with FS-3 substrate
Conditions: FS-3 2 μM, ATX 1.0 μg/mL, binned table, read-out: IC50 (μm)
Measured IC50, listed per entry for reference.

>  <compound smiles>
CCCCCCCOc1ccc2c(CN3CCC(CC(=O)O)CC3)cccc2c1

>  <study target>
Human ATX protein (Homo sapiens, UniProt Q13822)

>  <IC50>
> 5 µM

$$$$

Query: Provide value of IC50 for this record tested with Human ATX protein (Homo sapiens, UniProt Q13822): O=C(O)CCNCc1cccc2c(C(F)(F)F)c(O[C@H]3CC[C@@H](C(F)(F)F)CC3)ccc12
Reply: 0.5 to 5 µM

Query: What reported IC50 corresponds to CC(C)(C)[C@H]1CC[C@H](Oc2ccc3cccc(CN4CCC(C(=O)O)CC4)c3c2)CC1 on Human ATX protein (Homo sapiens, UniProt Q13822)?
Reply: > 5 µM

====

Target: Human ATX protein (Homo sapiens, UniProt Q13822)
Construct: made in house
Experiment: ATX biochemical FRET assay with FS-3 substrate
Conditions: FS-3 2 μM, ATX 1.0 μg/mL, binned table, read-out: IC50 (μm)
// IC50 lookup, one value per entry

Use the examples below as a reference point.
>  <compound>
C[C@H]1CC[C@@H](Oc2ccc3c(CN4C5CCCC4CC(C(=O)O)C5)cccc3c2C(F)(F)F)CC1 (stereo partly drawn)

>  <study target>
Human ATX protein (Homo sapiens, UniProt Q13822)

>  <IC50>
0.5 to 5 µM

$$$$
>  <compound>
O=C(O)C1CC2CCCC(C1)N2Cc1cccc2ccc(O[C@H]3CC[C@@H](C(F)(F)F)CC3)c(C(F)(F)F)c12 (stereo partly drawn)

>  <study target>
Human ATX protein (Homo sapiens, UniProt Q13822)

>  <IC50>
0.5 to 5 µM

$$$$
>  <compound>
O=C(O)C1CC2CCC(C1)N2Cc1cccc2ccc(O[C@H]3CC[C@@H](C(F)(F)F)CC3)c(C(F)(F)F)c12 (stereo partly drawn)

>  <study target>
Human ATX protein (Homo sapiens, UniProt Q13822)

>  <IC50>
0.5 to 5 µM

$$$$
>  <compound>
C[C@H]1CC[C@@H](Oc2ccc3cccc(CN4C5CCCC4CC(C(=O)O)C5)c3c2C(F)(F)F)CC1 (stereo partly drawn)

>  <study target>
Human ATX protein (Homo sapiens, UniProt Q13822)

>  <IC50>
0.5 to 5 µM

$$$$
>  <compound>
O=C(O)C1(NCc2cccc3c(C(F)(F)F)c(O[C@H]4CC[C@@H](C(F)(F)F)CC4)ccc23)CCCCC1

>  <study target>
Human ATX protein (Homo sapiens, UniProt Q13822)

>  <IC50>
> 5 µM

$$$$

Query: Value wanted: IC50 (Human ATX protein (Homo sapiens, UniProt Q13822)) of entry C[C@H]1CC[C@@H](Oc2ccc3c(CN4CCC(C(=O)O)CC4)cccc3c2C(F)(F)F)CC1
Reply: 0.5 to 5 µM

Query: Missing value: IC50, Human ATX protein (Homo sapiens, UniProt Q13822), entry CC(C)(C)[C@H]1CC[C@H](Oc2ccc3c(CN4CCC(CC(=O)O)CC4)cccc3c2)CC1 . Fill in?
Reply: > 5 µM

Query: IC50 of O=C(O)CCCCCNCc1cccc2c(C(F)(F)F)c(O[C@H]3CC[C@@H](C(F)(F)F)CC3)ccc12 on Human ATX protein (Homo sapiens, UniProt Q13822)?
Reply: < 0.5 µM

Query: Please provide the recorded IC50 for O=C(O)C1CC2CCCC(C1)N2Cc1cccc2c(C(F)(F)F)c(O[C@H]3CC[C@@H](C(F)(F)F)CC3)ccc12 (stereo partly drawn) , tested on Human ATX protein (Homo sapiens, UniProt Q13822).
Reply: 0.5 to 5 µM

From: patent US9499485B2
